Parameter: EC50. Scope: all listed entries.
- SYSTEM: acetylcholine muscarinic M1 receptor (Homo sapiens)
- Construct: b382 calls them CHOK1/hM1
- PROTOCOL NOTES: muscarinic FLIPR intracellular calcium assay, potentiation of EC20 acetylcholine in CHOnfat/hM1 cells
- CONDITION SUMMARY: inflection point calculated from FLIPR values, 4 min preincubation, then EC20 acetylcholine (3 nM final), read-out: IP Value
- Protocol: The assay studies the effect of one or several concentrations of test compounds on basal or acetylcholine-stimulated Ca^2+ levels using FLIPR. Compounds are prepared and subjected to a preincubation period of 4 min. Thereafter, a single EC20 concentration of acetylcholine is added to each well (3 nM final). The intracellular Ca^2+ level of each sample is measured and compared to an acetylcholine control to determine any modulatory activity. […]
# number only, unit nM dropped from output

Solved cases below.
{"columns": ["COMPOUND", "EC50 [nM]"],
 "data": [
  ["N#Cc1ccc(Cc2cc3c(=O)n([C@H]4CCOC[C@@H]4O)cnc3c3ccccc23)cn1 [Example 8]", 31],
  ["CCc1ccc(Cc2cc3c(=O)n([C@H]4CCOC[C@@H]4O)cnc3c3ccccc23)cn1 [Example 9]", 16],
  ["O=c1c2cc(Cc3ccc(-n4cccn4)nc3)c3ccccc3c2ncn1[C@H]1CCOC[C@@H]1O [Example 5]", 15]
]}

Give the reported value of EC50 for this record: O=c1c2cc(Cc3ccnc(Cl)c3)c3ccccc3c2ncn1[C@H]1CCOC[C@@H]1O [Example 15]
12

Let me know recorded EC50 for CC(=O)N1CC[C@H](n2cnc3c(cc(Cc4ccc(Cl)nc4)c4ccccc43)c2=O)[C@@H](O)C1 (racemic) [Example 36] , thanks.
120

State its EC50: O=c1c2cc(Cc3ccnc(F)c3)c3ccccc3c2ncn1[C@H]1CCOC[C@@H]1O [Example 25]
15

Give me measured EC50, please, for this compound: O=c1c2cc(Cc3ccc(Cl)[n+]([O-])c3)c3ccccc3c2ncn1[C@H]1CCOC[C@@H]1O [Example 14]
59

// Input: C[S+]([O-])c1ccc(Cc2cc3c(=O)n([C@H]4CCOC[C@@H]4O)cnc3c3ccccc23)cn1 (some centres unmarked) [Example 17] . Output its EC50 only.
90

----------
- SYSTEM: acetylcholine muscarinic M1 receptor (Homo sapiens, UniProt P11229)
- Construct: b382 calls them CHOK1/hM1
- Sequence (P11229 whole entry): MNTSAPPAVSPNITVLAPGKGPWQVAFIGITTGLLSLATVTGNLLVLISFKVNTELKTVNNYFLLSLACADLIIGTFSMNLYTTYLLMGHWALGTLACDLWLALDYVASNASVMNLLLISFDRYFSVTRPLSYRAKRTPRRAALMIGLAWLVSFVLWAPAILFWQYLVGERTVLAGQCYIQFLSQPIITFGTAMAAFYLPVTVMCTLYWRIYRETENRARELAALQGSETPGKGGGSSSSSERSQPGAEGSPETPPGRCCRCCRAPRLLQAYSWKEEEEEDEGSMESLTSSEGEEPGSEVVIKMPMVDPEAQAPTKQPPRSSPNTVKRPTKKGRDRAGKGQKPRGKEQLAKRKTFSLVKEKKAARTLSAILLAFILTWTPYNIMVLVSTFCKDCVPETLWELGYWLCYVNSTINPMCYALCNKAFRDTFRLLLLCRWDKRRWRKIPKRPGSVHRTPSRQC
- PROTOCOL NOTES: muscarinic FLIPR intracellular calcium assay, potentiation of EC20 acetylcholine in CHOnfat/hM1 cells
- CONDITION SUMMARY: inflection point calculated from FLIPR values, 4 min preincubation, then EC20 acetylcholine (3 nM final), read-out: IP Value
// classify: if (EC50 < 40 nM) yes else no

Bench note: check whether O=C(O)c1ccc(Cc2cc3c(=O)n([C@H]4CCOC[C@@H]4O)cnc3c3ccccc23)cn1 shows EC50 below 40 nM
no

----------
- SYSTEM: acetylcholine muscarinic M1 receptor (Homo sapiens)
- Construct: b382 calls them CHOK1/hM1
- PROTOCOL NOTES: muscarinic FLIPR intracellular calcium assay, potentiation of EC20 acetylcholine in CHOnfat/hM1 cells
- CONDITION SUMMARY: inflection point calculated from FLIPR values, 4 min preincubation, then EC20 acetylcholine (3 nM final), read-out: IP Value
PROPERTY: pEC50
// pEC50 is dimensionless: -log10 of concentration (M)

Sample records with pEC50:
{"columns": ["COMPOUND", "pEC50"],
 "data": [
  ["O=c1c2cc(Cc3ccc(Cl)nc3)c3ccccc3c2ncn1[C@H]1CCOC[C@@H]1O [Example 1]", 7.89],
  ["CSc1ccc(Cc2cc3c(=O)n([C@H]4CCOC[C@@H]4O)cnc3c3ccccc23)cn1 [Example 2]", 7.85],
  ["O=c1c2cc(Cc3ccnc(OC(F)F)c3)c3ccccc3c2ncn1[C@H]1CCOC[C@@H]1O [Example 30]", 7.11],
  ["CC(C)(O)c1ccc(Cc2cc3c(=O)n([C@H]4CCOC[C@@H]4O)cnc3c3ccccc23)cn1 [Example 11]", 7.12],
  ["COc1cc(Cc2cc3c(=O)n([C@H]4CCOC[C@@H]4O)cnc3c3ccccc23)ccn1 [Example 26]", 7.47]
]}

Give reported pEC50 value for O=c1c2cc(Cc3cccnc3)c3ccccc3c2ncn1[C@H]1CCOC[C@@H]1O [Example 6]
7.64
